This collection of values is drawn from paper PMC12736120.

assay: Plasma pharmacokinetics, QD and BID cohorts (non-compartmental); type: in vivo, human; details: human, plasma, oral, 125 mg, QD; C1D1; plasma; read-out: AUC0–12, Median
Assay Endpoint: AUC

[Q] If you can, please state the reported AUC value of Nc1ncc(-c2cnn(C3CCNCC3)c2)cc1-c1nnc(CC2CC2)o1 .
[A] 877 ng·h/mL

###

assay: Plasma pharmacokinetics, QD and BID cohorts (non-compartmental); type: in vivo, human; settings: human, plasma, oral, QD, 25 mg to 175 mg; C1D1; read-out: mean Cmax, range across cohorts
Assay Endpoint: Cmax

[Q] I am curious: what Cmax value has been reported for Nc1ncc(-c2cnn(C3CCNCC3)c2)cc1-c1nnc(CC2CC2)o1 ?
[A] 32.5 to 357 ng/mL
